Target: CFTR (F508del/MF-HBE cells) (Homo sapiens, UniProt P13569, DEL508-508)
Construct: human bronchial epithelial (HBE) cells derived from CF subjects heterozygous for F508del and a minimal function CFTR mutation; endogenous in cells; host or cells: primary human bronchial epithelial cells from CF subjects (F508del/MF genotype)
Sequence (P13569 with tags, fused parts or gaps DEL508-508): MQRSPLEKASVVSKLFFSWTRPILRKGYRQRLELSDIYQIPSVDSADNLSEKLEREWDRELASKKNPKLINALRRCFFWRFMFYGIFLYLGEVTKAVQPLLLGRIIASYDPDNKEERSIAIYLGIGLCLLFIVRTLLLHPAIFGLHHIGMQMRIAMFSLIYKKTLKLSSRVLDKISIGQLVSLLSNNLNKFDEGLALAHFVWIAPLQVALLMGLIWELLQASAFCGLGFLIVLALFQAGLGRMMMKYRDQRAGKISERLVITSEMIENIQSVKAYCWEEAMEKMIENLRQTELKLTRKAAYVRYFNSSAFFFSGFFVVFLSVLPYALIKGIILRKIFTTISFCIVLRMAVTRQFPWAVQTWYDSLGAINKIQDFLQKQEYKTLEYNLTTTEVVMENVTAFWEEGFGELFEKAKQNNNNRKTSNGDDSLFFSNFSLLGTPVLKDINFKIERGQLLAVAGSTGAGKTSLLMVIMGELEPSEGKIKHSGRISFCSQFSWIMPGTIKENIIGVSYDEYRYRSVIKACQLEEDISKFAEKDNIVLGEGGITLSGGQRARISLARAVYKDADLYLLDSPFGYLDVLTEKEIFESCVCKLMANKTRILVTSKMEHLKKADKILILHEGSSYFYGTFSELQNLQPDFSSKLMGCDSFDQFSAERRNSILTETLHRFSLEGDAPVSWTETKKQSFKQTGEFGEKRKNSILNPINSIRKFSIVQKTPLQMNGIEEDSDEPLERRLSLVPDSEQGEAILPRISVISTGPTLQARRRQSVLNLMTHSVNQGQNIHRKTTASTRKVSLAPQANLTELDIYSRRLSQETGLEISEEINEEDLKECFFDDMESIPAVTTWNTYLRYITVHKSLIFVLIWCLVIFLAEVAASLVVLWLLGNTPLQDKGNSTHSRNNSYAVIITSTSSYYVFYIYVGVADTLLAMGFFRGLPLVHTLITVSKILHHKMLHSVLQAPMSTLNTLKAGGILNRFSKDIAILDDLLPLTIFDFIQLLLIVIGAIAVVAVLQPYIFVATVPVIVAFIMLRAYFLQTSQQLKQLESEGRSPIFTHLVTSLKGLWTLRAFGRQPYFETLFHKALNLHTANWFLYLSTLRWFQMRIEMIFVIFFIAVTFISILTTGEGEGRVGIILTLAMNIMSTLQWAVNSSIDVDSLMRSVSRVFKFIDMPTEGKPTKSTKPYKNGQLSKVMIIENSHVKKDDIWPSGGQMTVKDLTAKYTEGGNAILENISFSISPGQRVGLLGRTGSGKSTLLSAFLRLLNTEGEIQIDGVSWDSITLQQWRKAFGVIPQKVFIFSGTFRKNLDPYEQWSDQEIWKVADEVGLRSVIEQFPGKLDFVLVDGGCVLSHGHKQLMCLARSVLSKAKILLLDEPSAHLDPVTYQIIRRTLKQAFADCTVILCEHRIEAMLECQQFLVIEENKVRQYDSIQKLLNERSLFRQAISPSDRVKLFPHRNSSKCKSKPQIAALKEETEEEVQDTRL
Assay: Ussing chamber assay of CFTR-mediated short-circuit currents (identification of potentiator compounds)
Type: cell-based
Conditions: CFTR-mediated ISC in F508del/MF-HBE cells; incubated 18-24 hours at 37° C. with 10 μM (14S)-8-[3-(2-{dispiro[2.0.2.1]heptan-7-yl}ethoxy)-1H-pyrazol-1-yl]-...-2,2,4-trione, 20% human serum
property_name: EC50

Q: // EC50 lookup, key: Nc1cc(C(F)(F)F)c2nc1-c1nnc(o1)[C@@](O)(C(F)(F)F)CCCCCC(C(=O)N1CCCC1)N2 (single isomer, unassigned) [Compound 157]
Ans: < 500 nM

Q: // EC50 lookup, key: `Nc1cc(C(F)(F)F)c2nc1-c1nnc(o1)C(=NO)CCCCC[C@@H]1CCCN21`
Ans: < 500 nM

Q: // EC50 lookup, key: Cc1cc(N)c2nc1N1CCC[C@H]1CCCCCC(O)(C(F)(F)F)C1=NN=C2O1 (single isomer, unassigned)
Ans: < 500 nM

Q: // EC50 lookup, key: Nc1cc(C(F)(F)F)c2nc1-c1nnc(o1)[C@@](O)(C(F)(F)F)CCCCCC(C(=O)N1CCCC1)N2 (single isomer, unassigned) [Compound 158]
Ans: > 1000 nM

Q: // EC50 lookup, key: `Nc1cc(C(F)(F)F)c2nc1-c1nnc(o1)[C@@](O)(C(F)(F)F)CCCCC[C@@H]1CCCN21`
Ans: < 500 nM

# evaluate next
Q: // EC50 lookup, key: CC(C)C1CCCCC[C@](O)(C(F)(F)F)C2=NN=C(O2)c2nc(c(C(F)(F)F)cc2N)N1 (single isomer, unassigned) [Compound 179]
Ans: < 500 nM

* * *

Biological target: CFTR (F508del/MF-HBE cells) (Homo sapiens, UniProt P13569, DEL508-508)
Construct: human bronchial epithelial (HBE) cells derived from CF subjects heterozygous for F508del and a minimal function CFTR mutation; endogenous in cells
Experiment: Ussing chamber assay of CFTR-mediated short-circuit currents (identification of potentiator compounds)
Conditions: CFTR-mediated ISC in F508del/MF-HBE cells; incubated 18-24 hours at 37° C. with 10 μM (14S)-8-[3-(2-{dispiro[2.0.2.1]heptan-7-yl}ethoxy)-1H-pyrazol-1-yl]-...-2,2,4-trione, 20% human serum
The compounds listed here are annotated with their EC50.

Here is how some compounds turned out for EC50.
Q: // EC50 lookup, key: COCCN1CCCCCCC(O)(C(F)(F)F)C2=NN=C(O2)c2nc1c(C(F)(F)F)cc2N (single isomer, unassigned) [Compound 35]
Ans: > 1000 nM

Q: // EC50 lookup, key: Nc1cc(C(F)(F)F)c2nc1-c1nnc(o1)C(O)(C(F)(F)F)c1cc(ccn1)CCC[C@@H]1CCCN21 (single isomer, unassigned) [Compound 87]
Ans: < 500 nM

Q: // EC50 lookup, key: CC1(C)CCCOCC(O)(C(F)(F)F)C2=NN=C(O2)c2nc(c(C(F)(F)F)cc2N)N1 (single isomer, unassigned) [Compound 197]
Ans: < 500 nM

Q: // EC50 lookup, key: Nc1cc(C(F)(F)F)c2nc1-c1nnc(o1)[C@@](O)(C(F)(F)F)CCCCCC1(CCCC1)N2 [Compound 177]
Ans: < 500 nM

Q: // EC50 lookup, key: Nc1cc(C(F)(F)F)c2nc1-c1nnc(o1)C(O)(C1CCOCC1)CCCCC[C@@H]1CCCN21 (single isomer, unassigned) [Compound 89]
Ans: > 1000 nM

More entries:
Q: // EC50 lookup, key: CN(C)C(=O)C1CCCCCC(O)(C(F)(F)F)C2=NN=C(O2)c2nc(c(C(F)(F)F)cc2N)N1 (single isomer, unassigned) [Compound 150]
Ans: > 1000 nM

Q: // EC50 lookup, key: COc1cc2nc(c1N)-c1nnc(o1)C(O)(C(F)(F)F)CCCCC[C@@H]1CCCN21 (single isomer, unassigned) [Compound 160]
Ans: > 1000 nM

Q: // EC50 lookup, key: CC1(CO)CCCCC[C@](O)(C(F)(F)F)C2=NN=C(O2)c2nc(c(C(F)(F)F)cc2N)N1 (single isomer, unassigned) [Compound 175]
Ans: < 500 nM

Q: // EC50 lookup, key: CC(C)N1CCCCCCC(O)(C(F)(F)F)C2=NN=C(O2)c2nc1c(C(F)(F)F)cc2N (single isomer, unassigned) [Compound 52]
Ans: < 500 nM

Q: // EC50 lookup, key: Nc1cc(C(F)(F)F)c2nc1-c1nnc(o1)C(O)(C(F)(F)F)CCCCCC(CO)N2 (single isomer, unassigned) [Compound 105]
Ans: > 1000 nM

Q: // EC50 lookup, key: CNC(=O)CN1CCCCCCC(O)(C(F)(F)F)C2=NN=C(O2)c2nc1c(C(F)(F)F)cc2N (single isomer, unassigned) [Compound 48]
Ans: < 500 nM

Q: // EC50 lookup, key: [2H]C([2H])([2H])C1(C([2H])([2H])[2H])CCCCC[C@](O)(C(F)(F)F)C2=NN=C(O2)c2nc(c(C(F)(F)F)cc2N)N1 [Compound 176]
Ans: < 500 nM

Q: // EC50 lookup, key: Nc1cc(C(F)(F)F)c2nc1-c1nnc(o1)[C@@](O)(C(F)(F)F)CCCCCC1(CCCCC1)N2 [Compound 193]
Ans: < 500 nM

Q: // EC50 lookup, key: N#Cc1cc(N)c2nc1N1CCC[C@H]1CCCCCC(O)(C(F)(F)F)C1=NN=C2O1 (single isomer, unassigned) [Compound 81]
Ans: > 1000 nM

Q: // EC50 lookup, key: Nc1cc(S(=O)(=O)c2ccc(OC(F)(F)F)cc2)c2nc1-c1nnc(o1)C(O)(C(F)(F)F)CCCCC[C@@H]1CCCN21 (mixture of isomers) [Compound 143]
Ans: < 500 nM

Q: // EC50 lookup, key: Nc1cc(C(F)(F)F)c2nc1-c1nnc(o1)C(O)(C(F)(F)F)CCCCCC(=O)N2 (single isomer, unassigned) [Compound 108]
Ans: < 500 nM
